# Method: Partition coefficient (logD)
# Particulars: octanol/water
Consider the following compounds; for each one, report its logD.

Examples with their reported logD follow.
compound="Cc1c(F)c(N2CC3CC2CN3)nc2c1c(=O)c(C(=O)O)cn2-c1ccc(F)cc1F (configuration not stated)" data_value=0.59
compound="Cc1c(F)c(N2CC3CC2CN3)nc2c1c(=O)c(C(=O)O)cn2C1CC1 (configuration not stated)" data_value=0.48
compound=CN[C@H]1CCN(c2nc3c(c(C)c2F)c(=O)c(C(=O)O)cn3-c2ccc(F)cc2F)C1 data_value=1.38
compound=Cc1c(F)c(N2CC[C@H](N)C2)nc2c1c(=O)c(C(=O)O)cn2-c1ccc(F)cc1 data_value=0.91
compound=CCc1c(F)c(N2CC[C@H](N)C2)nc2c1c(=O)c(C(=O)O)cn2C1CC1 data_value=1.37

State recorded logD for all listed compounds.
1. Cc1c(F)c(N2CC[C@H](N)C2)nc2c1c(=O)c(C(=O)O)cn2C1CC1
2. NC1CCN(c2nc3c(cc2F)c(=O)c(C(=O)O)cn3-c2ccc(F)cc2F)C1 (configuration not stated) [TOSUFLOXACIN]

[0.78, 0.1]

* * *

Consider the following compounds; for each one, report its half-life.
# Method: in vivo
# Particulars: mouse, plasma, T1/2
Write the quantity with the unit trailing the number.

Examples with their reported half-life follow.
compound=Cc1c(F)c(N2CC[C@H](N)C2)nc2c1c(=O)c(C(=O)O)cn2C(C)(C)C data_value="2.83 h"
compound="Cc1c(F)c(N2CC3CC2CN3)nc2c1c(=O)c(C(=O)O)cn2-c1ccc(F)cc1F (stereo unspecified)" data_value="2.38 h"
compound="O=C(O)c1cn(-c2ccc(F)cc2F)c2nc(N3CC4CC3CN4)c(F)cc2c1=O (stereo unspecified)" data_value="1.72 h"
compound="CC(C)(C)n1cc(C(=O)O)c(=O)c2cc(F)c(N3CC4CC3CN4)nc21 (stereo unspecified)" data_value="1.6 h"
compound="Cc1c(F)c(N2CC3CC2CN3)nc2c1c(=O)c(C(=O)O)cn2C(C)(C)C (stereo unspecified)" data_value="3.1 h"

Next up:
// recorded half-life for NC1CCN(c2nc3c(cc2F)c(=O)c(C(=O)O)cn3-c2ccc(F)cc2F)C1 (stereo unspecified) : 2.4 h

* * *

Consider the following compounds; for each one, report its solubility.
# Method: Solubility was measured at PH - 7.2 buffer
One number for each entry, in µg/mL.

Examples with their reported solubility follow.
compound="Cc1c(F)c(N2CC3CC2CN3)nc2c1c(=O)c(C(=O)O)cn2C1CC1 (stereo not drawn)" data_value=20
compound="Cc1c(F)c(N2CC3CCC2CN3)nc2c1c(=O)c(C(=O)O)cn2-c1ccc(F)cc1F (stereo not drawn)" data_value=10
compound=CC(C)(C)n1cc(C(=O)O)c(=O)c2cc(F)c(N3CCNCC3)nc21 data_value=820
compound=Cc1c(F)c(N2CC[C@H](N)C2)nc2c1c(=O)c(C(=O)O)cn2C(C)(C)C data_value=570
compound=CN[C@H]1CCN(c2nc3c(c(C)c2F)c(=O)c(C(=O)O)cn3-c2ccc(F)cc2F)C1 data_value=10
compound="O=C(O)c1cn(C2CC2)c2nc(N3CC4CC3CN4)c(F)cc2c1=O (stereo not drawn)" data_value=90

State recorded solubility for all listed compounds.
1. Cc1c(F)c(N2CC[C@H](N)C2)nc2c1c(=O)c(C(=O)O)cn2-c1ccc(F)cc1F
2. CCc1c(F)c(N2CC[C@H](N)C2)nc2c1c(=O)c(C(=O)O)cn2C1CC1

1: 50; 2: 70

State recorded solubility for all listed compounds.
1. Cc1c(F)c(N2CC[C@H](N)C2)nc2c1c(=O)c(C(=O)O)cn2C1CC1
2. Cc1c(F)c(N2CC[C@H](N)C2)nc2c1c(=O)c(C(=O)O)cn2-c1ccc(F)cc1
3. Cc1c(F)c(N2CC3CC2CN3)nc2c1c(=O)c(C(=O)O)cn2-c1ccc(F)cc1F (stereo not drawn)
4. NC1CCN(c2nc3c(cc2F)c(=O)c(C(=O)O)cn3-c2ccc(F)cc2F)C1 (stereo not drawn)
5. CC(C)(C)n1cc(C(=O)O)c(=O)c2cc(F)c(N3CC4CC3CN4)nc21 (stereo not drawn)

1: 70; 2: 80; 3: 50; 4: 20; 5: 80

* * *

Consider the following compounds; for each one, report its LD50.
# Method: Lethal dose was determined in OF1-strain female Swiss mice after intra venous administration of the drug
# Particulars: mouse, in vivo, iv
Write the quantity with the unit trailing the number.

Examples with their reported LD50 follow.
compound_smiles=Cc1c(F)c(N2CC[C@H](N)C2)nc2c1c(=O)c(C(=O)O)cn2C1CC1 data_value="56 mg/kg"
compound_smiles=CN[C@H]1CCN(c2nc3c(c(C)c2F)c(=O)c(C(=O)O)cn3-c2ccc(F)cc2F)C1 data_value="94 mg/kg"

Next up:
// recorded LD50 for Cc1c(F)c(N2CC[C@H](N)C2)nc2c1c(=O)c(C(=O)O)cn2-c1ccc(F)cc1 : 94 mg/kg

* * *

# Method: % dose recovered in mouse urine
# Particulars: % recovery
Quantity Measured: dose excreted (%)
Numbers only, in %.

Examples with their reported dose excreted follow.
compound="Cc1c(F)c(N2CC3CC2CN3)nc2c1c(=O)c(C(=O)O)cn2-c1ccc(F)cc1F (stereo unspecified)" units_of_measure=% data_value=11
compound="Cc1c(F)c(N2CC3CC2CN3)nc2c1c(=O)c(C(=O)O)cn2C(C)(C)C (stereo unspecified)" units_of_measure=% data_value=12
compound=Cc1c(F)c(N2CC[C@H](N)C2)nc2c1c(=O)c(C(=O)O)cn2C(C)(C)C units_of_measure=% data_value=7
compound=Cc1c(F)c(N2CCNCC2)nc2c1c(=O)c(C(=O)O)cn2C1CC1 units_of_measure=% data_value=12

State recorded dose excreted for all listed compounds.
1. CC(C)(C)n1cc(C(=O)O)c(=O)c2cc(F)c(N3CC4CC3CN4)nc21 (stereo unspecified)
2. O=C(O)c1cn(-c2ccc(F)cc2F)c2nc(N3CC4CC3CN4)c(F)cc2c1=O (stereo unspecified)

34
7

* * *

# Test system: Bacteroides fragilis
# Method: In vitro for antibacterial activity against […].
# Assay type: functional
Quantity Measured: log10 MIC (log10 of the value in µg/mL)
Response schema: value (number) is log10 of MIC in units of µg/mL.

molecule="Cc1c(F)c(N2CC3CC2CN3)nc2c1c(=O)c(C(=O)O)cn2C(C)(C)C (stereo unspecified)" data_value=1.51
molecule=Cc1c(F)c(N2CC[C@H](N)C2)nc2c1c(=O)c(C(=O)O)cn2-c1ccc(F)cc1F data_value=-0.60
molecule=CC(C)(CF)n1cc(C(=O)O)c(=O)c2cc(F)c(N3CC[C@H](N)C3)nc21 data_value=1.20
molecule=CCc1c(F)c(N2CC[C@H](N)C2)nc2c1c(=O)c(C(=O)O)cn2C1CC1 data_value=0.00
molecule=CCc1c(F)c(N2CCNCC2)nc2c1c(=O)c(C(=O)O)cn2C1CC1 data_value=0.00

Next up:
// recorded log10 MIC for CN[C@H]1CCN(c2nc3c(c(C)c2F)c(=O)c(C(=O)O)cn3-c2ccc(F)cc2F)C1 : 0.30

* * *

# Method: Lethal dose was determined in OF1-strain female Swiss mice after intra venous administration of the drug
# Particulars: mouse, in vivo, iv
Consider the following molecules; for each one, report its LD50.
Answers are plain numbers, in mg/kg.

State recorded LD50 for all listed molecules.
1. CC(C)(C)n1cc(C(=O)O)c(=O)c2cc(F)c(N3CC4CC3CN4)nc21 (stereo not given)
2. Cc1c(F)c(N2CC3CC2CN3)nc2c1c(=O)c(C(=O)O)cn2C1CC1 (stereo not given)
3. Cc1c(F)c(N2CC3CCC2CN3)nc2c1c(=O)c(C(=O)O)cn2-c1ccc(F)cc1F (stereo not given)

1: 303; 2: 131; 3: 24

State recorded LD50 for all listed molecules.
1. NC1CCN(c2nc3c(cc2F)c(=O)c(C(=O)O)cn3-c2ccc(F)cc2F)C1 (stereo not given) [TOSUFLOXACIN]
2. Cc1c(F)c(N2CC[C@H](N)C2)nc2c1c(=O)c(C(=O)O)cn2-c1ccc(F)cc1F

1. 81
2. 84

* * *

# Method: Max plasma concentration was measured by 40 mg/kg dose of peroral administration.
# Assay type: ADME, organism-based
# Set-up: dose 40 mg/kg, route oral
# Particulars: po
Quantity Measured: Cmax (ng/mL)
One number for each entry, in ng/mL.

// recorded Cmax for Cc1c(F)c(N2CC[C@H](N)C2)nc2c1c(=O)c(C(=O)O)cn2C(C)(C)C : 7000

* * *

# Tested on: Bacteroides fragilis
# Method: In vitro for antibacterial activity against […].
# Format: functional
Consider the following molecules; for each one, report its log10 of MIC.
Response schema: value (number) is log10 of MIC in units of µg/mL.

molecule=N[C@H]1CCN(c2nc3c(cc2F)c(=O)c(C(=O)O)cn3C2CC2)C1 measurement_target="Bacteroides fragilis" data_value=0.30

State recorded log10 of MIC for all listed molecules.
1. Cc1c(F)c(N2CCNCC2)nc2c1c(=O)c(C(=O)O)cn2C1CC1
2. NC1CCN(c2nc3c(cc2F)c(=O)c(C(=O)O)cn3-c2ccc(F)cc2F)C1 (stereo not given)

[1.51, 0.00]

State recorded log10 of MIC for all listed molecules.
1. Cc1c(F)c(N2CC3CC2CN3)nc2c1c(=O)c(C(=O)O)cn2-c1ccc(F)cc1F (stereo not given)
2. Cc1c(F)c(N2CCNCC2)nc2c1c(=O)c(C(=O)O)cn2-c1ccc(F)cc1F
3. O=C(O)c1cn(C2CC2)c2cc(N3CCNCC3)c(F)cc2c1=O

0.60
0.60
0.60

State recorded log10 of MIC for all listed molecules.
1. Cc1c(F)c(N2CC[C@H](N)C2)nc2c1c(=O)c(C(=O)O)cn2C(C)(C)C
2. Cc1c(F)c(N2CC3CC2CN3)nc2c1c(=O)c(C(=O)O)cn2C1CC1 (stereo not given)
3. CC(C)(C)n1cc(C(=O)O)c(=O)c2cc(F)c(N3CC[C@H](N)C3)nc21
4. CC(C)(C)n1cc(C(=O)O)c(=O)c2cc(F)c(N3CCNCC3)nc21
5. CC(C)(C)n1cc(C(=O)O)c(=O)c2cc(F)c(N3CC4CC3CN4)nc21 (stereo not given)
6. O=C(O)c1cn(-c2ccc(F)cc2F)c2nc(N3CCNCC3)c(F)cc2c1=O
7. Cc1c(F)c(N2CC[C@H](N)C2)nc2c1c(=O)c(C(=O)O)cn2C(C)(C)CF
8. O=C(O)c1cn(-c2ccc(F)cc2F)c2nc(N3CC4CC3CN4)c(F)cc2c1=O (stereo not given)

[0.60, 0.00, 0.00, 0.90, 0.60, 0.30, 0.30, 0.00]

State recorded log10 of MIC for all listed molecules.
1. Cc1c(F)c(N2CC[C@H](N)C2)nc2c1c(=O)c(C(=O)O)cn2C1CC1
2. Cc1c(F)c(N2CC3CCC2CN3)nc2c1c(=O)c(C(=O)O)cn2C1CC1 (stereo not given)

-0.60
1.20

State recorded log10 of MIC for all listed molecules.
1. Cc1c(F)c(N2CC3CCC2CN3)nc2c1c(=O)c(C(=O)O)cn2-c1ccc(F)cc1F (stereo not given)
2. N[C@H]1CCN(c2nc3c(c(-c4ccccc4)c2F)c(=O)c(C(=O)O)cn3C2CC2)C1

1. 0.60
2. 2.10

// recorded log10 of MIC for N[C@H]1CCN(c2nc3c(cc2F)c(=O)c(C(=O)O)cn3-c2ccc(F)cc2F)C1 : -0.30
